molecular target: Tubulin (Bos taurus, UniProt Q6B856+Q862L2+Q862F3); assay: Binding affinity to bovine brain tubulin assessed as reduction in tubulin intrinsic tryptophan fluorescence intensity incubated for 45 mins by spectrophotometry based fluorescence titration assay
MEASURED_ENDPOINT: Kd (µM)

1) COc1ccc2c(c1OC(C)=O)C(=O)O[C@@H]2[C@H]1c2c(c(Br)c3c(c2OC)OCO3)CCN1C :: 44
2) COc1ccc2c(c1OC(=O)NCc1ccccc1)C(=O)O[C@@H]2[C@H]1c2c(c(Br)c3c(c2OC)OCO3)CCN1C :: 21
3) COc1ccc2c(c1O)C(=O)O[C@@H]2[C@H]1c2c(c(Br)c3c(c2OC)OCO3)CCN1C :: 55
4) CCNC(=O)Oc1c(OC)ccc2c1C(=O)O[C@@H]2[C@H]1c2c(c(Br)c3c(c2OC)OCO3)CCN1C :: 26
